Tested on: HT-29
Test: NCI tumour cell line growth inhibition, 48 h
Active and inactive are the calls of the source. Rule as the data show it: active = GI50 up to about 1.1 µM and inactive = higher.
READOUT KIND: GI50

Past entries and their recorded results:
COMPOUND	GI50
CC(=O)OCC1OC(Nn2c(=O)[nH]c3ccccc3c2=O)C(OC(C)=O)C(OC(C)=O)C1OC(C)=O (configuration not stated)	> 100 µM (inactive)
CC1Oc2c(c(O)cc3oc(=O)cc(-c4ccccc4)c23)C(=O)C1C (configuration not stated)	> 10 µM (inactive)
COC(=O)C(CCC#N)(CCC#N)C(=O)OC	> 100 µM (inactive)
CCCCC1Cc2cc(O)ccc2-c2n1c1cc(O)ccc1[n+]2C.CCCCC1Cc2cc(O)ccc2-c2n1c1ccc(O)cc1[n+]2C (configuration not stated)	41.7 µM (inactive)
CN1CCC2(CC1)SSC1(CCN(C)CC1)S2	> 100 µM (inactive)
CCCCCC(C/C=N/N(C)C)C(O)(C(F)(F)F)C(F)(F)F (configuration not stated)	29 µM (inactive)
CC1(O)CC23CC1CCC2(C)C12CCCC(C)(C(=O)O1)C2CC3O (configuration not stated)	> 100 µM (inactive)
COC(=O)c1c(C)oc2ccc(OC(C)=O)cc12	83 µM (inactive)
CC1(Cl)CC2OC3(Br)C=CC(C)(O)C2(CC1Br)C3(C)C (configuration not stated)	> 100 µM (inactive)
Cc1cc(Cl)ccc1NC(=O)CC/C(CC(=O)C(C)C)=N\NC(=O)C[n+]1ccccc1	> 100 µM (inactive)

### Prompt Return reported GI50; argument: COc1cc(CNc2ccc(SC)cc2)cc(OC)c1OC
### Response 3.35 µM (inactive)

### Prompt Also O=C(O)/C=C\C(=O)c1ccc(Cl)cc1 , if possible.
### Response 27.2 µM (inactive)

---

Attribute: GI50
Tested on: RXF 393
Experiment: NCI tumour cell line growth inhibition, 48 h
Calls of active or inactive are those of the source. Rule as the data show it: active = GI50 up to about 1.1 µM and inactive = higher.

As a guide, the following entries are already answered.
COMPOUND	RESULT
CCOc1ccc2nc(NC(=O)C(=O)C3C(=O)C(CC4C(=O)c5ccccc5C4=O)C(=O)CC3(C)C)sc2c1 (configuration not stated)	> 100 µM (inactive)
COc1cc([C@@H]2c3cc4c(cc3[C@H](OC3OC5COC(c6ccco6)OC5C(O)C3O)C3COC(=O)[C@@H]32)OCO4)cc(OC)c1OC (some centres not stated)	2.82 µM (inactive)
CC(C)(C)[Si](C)(C)OCC1OC(n2cnc3c(N)ncnc32)CC1OS(C)(=O)=O (configuration not stated)	25.6 µM (inactive)
CC1CC/C(=C\c2ccc(Cl)cc2)C2OC(N)=C(C#N)C(c3ccc(Cl)cc3)=C12 (configuration not stated)	14.6 µM (inactive)
CO[C@H]1C[C@@H]2CC[C@@H](C)[C@@](O)(O2)C(=O)C(=O)N2CCCC[C@H]2C(=O)O[C@H]([C@H](C)C[C@@H]2CC[C@@H](OC(=O)C(C)(CO)CO)[C@H](OC)C2)CC(=O)[C@H](C)/C=C(\C)[C@@H](O)[C@@H](OC)C(=O)[C@H](C)C[C@H](C)/C=C/C=C/C=C/1C	0.0034 µM (active)

Now for the compound whose GI50 we want.
### Prompt Suppose we examine the compound N#CC(C#N)/N=N/c1ccc(-c2nc3ccccc3[nH]2)cc1 ; what GI50 value has been reported?
### Response 19.2 µM (inactive)
